Each recorded value in this set is attributed to PubChem BioAssay (NCI).

Listed below: TGI values for each entry.
# Test system: LOX IMVI melanoma
# Experimental Protocol: NCI tumour cell line growth inhibition, 48 h
Where a SMILES comes first, the peptide text is derived from it. [ ]: non-standard residue; d: D form. The star is where a group is joined. Tyr(3-Br) = N[C@@H](Cc1ccc(O)c(Br)c1)C(=O)O; Boc = CC(C)(C)OC(=O)*
Experimental Readout: TGI

1. COC(=O)c1c(O)c([N+](=O)[O-])cc2c1c1c(n2Cc2ccccc2)C(=O)c2ccccc2C1=O ... > 100 µM
2. Cc1cccc(CC(Cc2c(C)cccc2C(=O)O)C(=O)O)c1 (stereo not drawn) ... > 100 µM
3. Cc1ccc2c(n1)C(=O)C=CC2=O ... 12.6 µM
4. COC(=O)CCC(=O)Nc1cc(Cl)ccc1Cl ... > 100 µM
5. N=c1c2c(=S)n(-c3ccccc3)c(=S)n(-c3ccccc3)c2nc(SCCCN2CCN(c3cccc(Cl)c3)CC2)n1-c1ccccc1 ... > 100 µM
6. CCOC(=O)c1sc(N/N=C2\NC(=O)/C(=C/c3ccc([N+](=O)[O-])cc3)S2)nc1C ... 46.1 µM
7. COC(=O)[C@H](Cc1ccc(O)c(Br)c1)NC(=O)[C@H](Cc1ccc(O)cc1)NC(=O)OC(C)(C)C (Boc-Tyr-[Tyr(3-Br)]-OMe) ... 42.6 µM
8. COc1cc(C)cc2c1c(=O)c1ccccc1n2C ... 53.6 µM
9. CCOC(=O)Cc1csc2[n+]1C(=O)/C(=C/c1cccc(OC)c1O)S2 ... > 100 µM
10. COC(=O)Nc1nc2ccc(C(=O)c3ccc(N(C)C4COC4)cc3)cc2[nH]1 ... > 100 µM
11. O=C(Cc1nc2ccccc2s1)C(=O)Nc1cccc(Cl)c1 ... > 100 µM
12. COc1ccc(C2Oc3cc(OC)c(O)c(C)c3[C@H]2C)cc1 (stereo partly drawn) ... > 100 µM
13. Cc1nccc2c3ccc(OCc4cn(-c5ccc(Cl)cc5)nn4)cc3n(CCCc3ccccc3)c12 ... 4.88 µM

###

# Test system: KM12 colon
# Experimental Protocol: NCI tumour cell line growth inhibition, 48 h
Experimental Readout: TGI

1) CC(C)CC(=O)Nc1n[nH]c2c1CN(C(=O)C1CCN(C)CC1)C2(C)C ... > 10 µM
2) CCNc1nnc(-c2nsc3ccccc23)s1 ... > 100 µM
3) O=S(=O)(SCc1ccccc1)C(c1ccccc1)c1ccccc1 ... > 100 µM
4) Cc1ccccc1C(=O)Oc1ccc(O)cc1 ... > 100 µM
5) CS(=O)(=O)Nc1cccc(-c2cc(-c3ccccc3Cl)c(C#N)c(N)n2)c1 ... 13.1 µM
6) COC(C(=O)C(O)C(C)O)C1CC2C=C3C=C(OC4CC(OC5CC(O)C(OC)C(C)O5)C(OC(C)=O)C(C)O4)C(C)C(=O)C3=C(O)C2=C(O)C1OC1CC(OC2CC(OC3CC(C)(O)C(OC(=O)C(C)C)C(C)O3)C(O)C(C)O2)C(O)C(C)O1 (stereo not given) ... < 0.01 µM
7) CCOc1ccc(NC(=O)/C(=N\NC(C)(C)C)C2C(=O)Nc3ccccc3S2=O)cc1 (stereo not given) ... > 100 µM
8) Cc1nn(C(=O)c2ccncc2)c2c1C(c1ccccc1)SC(N)=N2 (stereo not given) ... > 10 µM
9) Cn1c(-c2cccs2)cc(-c2cccs2)c1-c1ccco1 ... 22.9 µM
10) COc1cc(O)c2c(c1)C(=O)C=C(Cl)C2=O ... > 100 µM
11) Cc1ccc(S(=O)(=O)N2C[C@](O)(c3ccccc3)[C@H]2C)cc1 ... > 100 µM
12) COC(=O)c1c(O)c([N+](=O)[O-])cc2c1c1c(n2Cc2ccccc2)C(=O)c2ccccc2C1=O ... 78.5 µM
13) COC(=O)c1cccc(N[C@@H]2c3cc4c(cc3C(c3cc(OC)c(O)c(OC)c3)[C@H]3C(=O)OCC32)OCO4)c1 (stereo not given in full) ... 10.2 µM
14) C[C@@H]1Cc2c([nH]c3ccccc23)[C@@H](c2c(F)cc(NC3CN(CCCF)C3)cc2F)N1CC(F)(F)CO ... 18 µM
15) COc1ccc(/C=C2\CCC(C)/C(=C\c3ccc(OC)c(OC)c3)C2=O)cc1OC (stereo not given) ... 7.04 µM
16) CC(=O)O[C@H]1CCC2[C@@H]3CCC4=C(O)C(=O)C(C#N)C[C@]4(C)C3CC[C@@]21C (stereo not given in full) ... > 100 µM
17) COc1cc(/C=C2/SC(c3ccccc3)N(c3ccccc3)C2=O)cc(OC)c1OC (stereo not given) ... > 100 µM
18) CCCCCCCC/C=C\CCCCCCCC(=O)O ... > 500 µM
19) CCN1C2=NCCN2S(=O)(=O)c2ccccc21 ... > 100 µM
20) Cc1oc(N)c(S(=O)(=O)c2ccc(Cl)cc2)c1C ... > 100 µM
